Biological target: 5-HT2A receptor (Homo sapiens, UniProt P28223)
Sequence (P28223 whole entry): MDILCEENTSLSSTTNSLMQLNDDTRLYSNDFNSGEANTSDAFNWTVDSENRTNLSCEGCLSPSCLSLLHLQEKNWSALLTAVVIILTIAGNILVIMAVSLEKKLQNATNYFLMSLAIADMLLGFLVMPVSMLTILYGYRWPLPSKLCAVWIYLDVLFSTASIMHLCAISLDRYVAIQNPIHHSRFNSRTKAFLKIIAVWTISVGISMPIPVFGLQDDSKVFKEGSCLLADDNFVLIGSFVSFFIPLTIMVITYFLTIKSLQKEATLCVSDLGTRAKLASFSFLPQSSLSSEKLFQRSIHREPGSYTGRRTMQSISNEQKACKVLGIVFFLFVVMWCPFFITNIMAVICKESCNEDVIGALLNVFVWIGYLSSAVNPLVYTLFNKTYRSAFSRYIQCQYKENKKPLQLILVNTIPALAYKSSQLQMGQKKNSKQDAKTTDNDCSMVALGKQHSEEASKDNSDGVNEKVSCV
Experiment: Receptor Selection and Amplification (R-SAT) assay, 5-HT2A inverse agonism
Details: Table 4 of Example 137
Structures can show the parent of a compound that is named as a salt.
quantity_measured: pIC50
When answering, recall that pIC50 equals minus log10 of the concentration in mol/L, and write that number alone.

## Input Given Cc1ccc(CN(C(=O)Cc2ccc(N(C)C)cc2)C2CCN(C)CC2)cc1 [Compound 57MBT70-6D, hydrochloride] , state its recorded pIC50.
## Output 8.00

Cited source: patent US9296694B2
